Recorded Serum calcium level as percent of pre-dose baseline, one value per entry.
- Tested on: calcium concentration in the serum
- ASSAY NOTES: Test 1: reduction of calcium level in serum after tail vein administration to rats
- Type: in vivo, rats of the Wistar strain
- STATED CONDITIONS: concentration 166 ng/ml, 1 ml/kg tail vein, female Wistar rats; 0 hour (just before administration)
Ends that are not written are not given here.
READOUT TYPE: Serum calcium level as percent of pre-dose baseline (%)

1. AGNLSTAMLGKLSQELHKLYPQTAIGVGAP-NH2 [Peptide No. 16] :: 100.0
2. AGNLSTAMLGKLSQELHKLQTYPQTAIGVGAP-NH2 [Peptide No. 14] :: 100.0
3. AGNLSTAMLGKLSQELHKGQTYPQTAIGVGAP-NH2 [Peptide No. 17] :: 100.0
4. AGNLSTAMLGKLSQELHKQTYPQTAIGVGAP-NH2 [Peptide No. 15] :: 100.0

====

- Test system: calcium concentration in the serum
- ASSAY NOTES: Test 1: reduction of calcium level in serum after tail vein administration to rats
- Format: in vivo, rats of the Wistar strain
- STATED CONDITIONS: concentration 166 ng/ml, 1 ml/kg tail vein, female Wistar rats; 1 hour
- Protocol: Six-weeks-old female rats of the Wistar strain (each group consisting of 4 rats) were used as the test animal, and the peptides of the present invention obtained in the examples given hereinafter were tested at concentrations adjusted with a 1% aqueous solution of sodium acetate (pH 4,0) to which 0.1% bovine serum albumin (BSA) was added. The solution was adjusted to a concentration of 166 μg/ml 830 ng/ml or 83 ng/ml and administered with the tail vein in an amount of 1 ml/kg. […]
Ends that are not written are not given here.
READOUT TYPE: Serum calcium level as percent of pre-dose baseline (%)

1) AGNLSTAMLGKLSQELHKLYPQTAIGVGAP-NH2 [Peptide No. 16] :: 80.0
2) AGNLSTAMLGKLSQELHKQTYPQTAIGVGAP-NH2 [Peptide No. 15] :: 75.5
3) AGNLSTAMLGKLSQELHKGQTYPQTAIGVGAP-NH2 [Peptide No. 17] :: 77.6
4) AGNLSTAMLGKLSQELHKLQTYPQTAIGVGAP-NH2 [Peptide No. 14] :: 76.0
